- Experimental system: protein-protein interaction between Kras and SOS1 (biotin-tagged human Kras loaded with GDP, His-tagged human SOS1) (Homo sapiens (Human), UniProt P01116, G12D)
- Test summary: Protein-protein interaction inhibition between Kras and SOS1 (KrasG12D-SOS PPI) using AlphaScreen
- Assay type: biochemical
- Experimental conditions: AlphaScreen; biotin-tagged human Kras loaded with GDP, His-tagged human SOS1; read-out: KRAS G12D-SOS PPI IC50
Bridge positions count the residues as written; N and C are the ends. Square brackets hold non-standard residues; d marks the D form. Peptide text beside a SMILES is read from it. * marks the point of attachment. hPhe(3-Cl-4-CF3) = N[C@@H](CCc1ccc(C(F)(F)F)c(Cl)c1)C(=O)O; NMeCha = CN[C@@H](CC1CCCCC1)C(=O)O; Ala(cPr) = N[C@@H](CC1CC1)C(=O)O; NMeD = CN[C@@H](CC(=O)O)C(=O)O; NMeL = CN[C@@H](CC(C)C)C(=O)O; NMeV = CN[C@H](C(=O)O)C(C)C; NMeA = CN[C@@H](C)C(=O)O; Piperidide = C1CCN(*)CC1; Ac5c = NC1(C(=O)O)CCCC1; Aze = O=C(O)[C@@H]1CCN1; Sar = CNCC(=O)O
Measurement type: IC50

Q) Name the recorded IC50 for CC(C)C[C@H]1C(=O)N[C@@H](CC2CC2)C(=O)N(C)[C@@H](C)C(=O)N2CC[C@H]2C(=O)N(C)[C@@H](CC2CCCCC2)C(=O)N(C)CC(=O)N[C@@H](CCc2ccc(C(F)(F)F)c(Cl)c2)C(=O)N2CCC[C@H]2C(=O)NC2(CCCC2)C(=O)N(C)[C@@H](C(C)C)C(=O)N(C)[C@H](C(=O)N2CCCCC2)CC(=O)N1C [Compound 358] ([NMeL][Ala(cPr)][NMeA][Aze][NMeCha][Sar][hPhe(3-Cl-4-CF3)]P[Ac5c][NMeV][NMeD]-Piperidide; lactam N-11) .
A) 33 nM

* * *

- Experimental system: protein-protein interaction between Kras and SOS1 (biotin-tagged human Kras loaded with GDP, His-tagged human SOS1) (Homo sapiens (Human), UniProt P01116, G12D)
- Test summary: Protein-protein interaction inhibition between Kras and SOS1 (KrasG12D-SOS PPI) using AlphaScreen
- Assay type: biochemical
- Experimental conditions: AlphaScreen; biotin-tagged human Kras loaded with GDP, His-tagged human SOS1; read-out: KRAS G12D-SOS PPI IC50
Numbered stars: 1 amine (or outer) side, 2 acyl side, 3 side chain; on linkers, the order of the positions; unused ones are H or OH. Bridge positions count the residues as written; N and C are the ends. Square brackets hold non-standard residues; d marks the D form. Peptide text beside a SMILES is read from it. * marks the point of attachment. hPhe(3-Cl-4-CF3) = N[C@@H](CCc1ccc(C(F)(F)F)c(Cl)c1)C(=O)O; X28 = O=C(CN(C1CC2(COC2)C1)[*:1])[*:2]; NMeCha = CN[C@@H](CC1CCCCC1)C(=O)O; NMeChg = CN[C@H](C(=O)O)C1CCCCC1; NMeD = CN[C@@H](CC(=O)O)C(=O)O; NMeL = CN[C@@H](CC(C)C)C(=O)O; NMeV = CN[C@H](C(=O)O)C(C)C; Azetidin(1-yl) = C1CN(*)C1; NMeA = CN[C@@H](C)C(=O)O; Piperidide = C1CCN(*)CC1; Ac5c = NC1(C(=O)O)CCCC1; Aze = O=C(O)[C@@H]1CCN1; Sar = CNCC(=O)O
Measurement type: pIC50
Here pIC50 is given on a logarithmic scale as minus log10 of the concentration in mol/L.

Q) Reported pIC50 for CC[C@H](C)[C@@H]1NC(=O)[C@H](CC(C)C)N(C)C(=O)C[C@@H](C(=O)N2CCCCC2)N(C)C(=O)[C@H](C2CCCCC2)N(C)C(=O)C2(CCCC2)NC(=O)CN(C2CC3(COC3)C2)C(=O)[C@H](CCc2ccc(C(F)(F)F)c(Cl)c2)NC(=O)CN(C)C(=O)[C@H](CC2CCCCC2)N(C)C(=O)CN(C)C(=O)CN(C)C1=O [Compound 2030] ([NMeL]I[Sar][Sar][NMeCha][Sar][hPhe(3-Cl-4-CF3)][X28][Ac5c][NMeChg][NMeD]-Piperidide; lactam N-11) : what is it?
A) 8.64

Q) Recorded pIC50 for CC[C@H](C)[C@@H]1NC(=O)[C@H](CC(C)C)N(C)C(=O)C[C@@H](C(=O)N2CCC2)N(C)C(=O)[C@H](C(C)C)N(C)C(=O)C2(CCCC2)NC(=O)[C@@H]2CCCN2C(=O)[C@H](CCc2ccc(C(F)(F)F)c(Cl)c2)NC(=O)CN(C)C(=O)[C@H](CC2CCCCC2)N(C)C(=O)[C@@H]2CCN2C(=O)[C@H](C)N(C)C1=O [Compound 256] ([NMeL]I[NMeA][Aze][NMeCha][Sar][hPhe(3-Cl-4-CF3)]P[Ac5c][NMeV][NMeD]-{Azetidin(1-yl)}; lactam N-11) , please?
A) 9.01

* * *

- Experimental system: protein-protein interaction between Kras and SOS1 (biotin-tagged human Kras loaded with GDP, His-tagged human SOS1) (Homo sapiens (Human), UniProt P01116, G12D)
- Test summary: Protein-protein interaction inhibition between Kras and SOS1 (KrasG12D-SOS PPI) using AlphaScreen
- Format: biochemical
- Experimental conditions: AlphaScreen; biotin-tagged human Kras loaded with GDP, His-tagged human SOS1; read-out: KRAS G12D-SOS PPI IC50
Numbered stars: 1 amine (or outer) side, 2 acyl side, 3 side chain; on linkers, the order of the positions; unused ones are H or OH. Bridge positions count the residues as written; N and C are the ends. Square brackets hold non-standard residues; d marks the D form. Peptide text beside a SMILES is read from it. * marks the point of attachment. hPhe(3-Cl-4-CF3) = N[C@@H](CCc1ccc(C(F)(F)F)c(Cl)c1)C(=O)O; hPhe(3-F,4-CF3) = N[C@@H](CCc1ccc(C(F)(F)F)c(F)c1)C(=O)O; X24 = COc1cncc(C[C@@H](C(=O)[*:2])N(C)[*:1])c1; NMeGly(cPent) = CN[C@H](C(=O)O)C1CCCC1; NMeCha = CN[C@@H](CC1CCCCC1)C(=O)O; NMeChg = CN[C@H](C(=O)O)C1CCCCC1; NMeD = CN[C@@H](CC(=O)O)C(=O)O; NMeL = CN[C@@H](CC(C)C)C(=O)O; NMeA = CN[C@@H](C)C(=O)O; Piperidide = C1CCN(*)CC1; Ac5c = NC1(C(=O)O)CCCC1; Aze = O=C(O)[C@@H]1CCN1; NEtG = CCNCC(=O)O; Sar = CNCC(=O)O
Measurement type: IC50 (nM)
Note: unit nM is implicit; provide only the numeric part.

Q) Fill blank: measured IC50 of the molecule CC[C@H](C)[C@@H]1NC(=O)[C@H](CC(C)C)N(C)C(=O)C[C@@H](C(=O)N2CCCCC2)N(C)C(=O)[C@H](C2CCCCC2)N(C)C(=O)C2(CCCC2)NC(=O)[C@H](Cc2cncc(OC)c2)N(C)C(=O)[C@H](CCc2ccc(C(F)(F)F)c(Cl)c2)NC(=O)CN(C)C(=O)[C@H](CC2CCCCC2)N(C)C(=O)CN(C)C(=O)CN(C)C1=O [Compound 887] ([NMeL]I[Sar][Sar][NMeCha][Sar][hPhe(3-Cl-4-CF3)][X24][Ac5c][NMeChg][NMeD]-Piperidide; lactam N-11) is ____.
A) 6.2

Q) Given the entry CC[C@H](C)[C@@H]1NC(=O)[C@H](CC(C)C)N(C)C(=O)C[C@@H](C(=O)N(C)C)N(C)C(=O)[C@H](C2CCCC2)N(C)C(=O)C2(CCCC2)NC(=O)[C@@H]2CCCN2C(=O)[C@H](CCc2ccc(C(F)(F)F)c(F)c2)NC(=O)CN(CC)C(=O)[C@H](CC2CCCCC2)N(C)C(=O)[C@@H]2CCN2C(=O)[C@H](C)N(C)C1=O [Compound 1205] ([NMeL]I[NMeA][Aze][NMeCha][NEtG][hPhe(3-F,4-CF3)]P[Ac5c][NMeGly(cPent)][NMeD]-NMe2; lactam N-11) , report its measured IC50.
A) 2.8

* * *

Give measured IC50 for each item. Keep answers brief.
- Experimental system: protein-protein interaction between Kras and SOS1 (biotin-tagged human Kras loaded with GDP, His-tagged human SOS1) (Homo sapiens (Human), UniProt P01116, G12D)
- Test summary: Protein-protein interaction inhibition between Kras and SOS1 (KrasG12D-SOS PPI) using AlphaScreen;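 note: kras produced in E. coli, Ni-coupled donor beads and streptavidin acceptor beads, excitation 680 nm with emission detected at 520–620 nm via singlet oxygen transfer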
- Type: biochemical
- Experimental conditions: AlphaScreen; biotin-tagged human Kras loaded with GDP, His-tagged human SOS1; read-out: KRAS G12D-SOS PPI IC50
Numbered stars: 1 amine (or outer) side, 2 acyl side, 3 side chain; on linkers, the order of the positions; unused ones are H or OH. Bridge positions count the residues as written; N and C are the ends. Square brackets hold non-standard residues; d marks the D form. Peptide text beside a SMILES is read from it. * marks the point of attachment. hPhe(3,5-F2-4-CF3) = N[C@@H](CCc1cc(F)c(C(F)(F)F)c(F)c1)C(=O)O; NMePhe(4-CF3) = CN[C@@H](Cc1ccc(C(F)(F)F)cc1)C(=O)O; NMedβ3hAla = C[C@H](CC(=O)[*:2])N(C)[*:1]; Phe(3-I) = N[C@@H](Cc1cccc(I)c1)C(=O)O; NMeY = CN[C@@H](Cc1ccc(O)cc1)C(=O)O; Hyp = O=C(O)[C@@H]1C[C@@H](O)CN1; NMeI = CC[C@H](C)[C@H](NC)C(=O)O; NMeE = CN[C@@H](CCC(=O)O)C(=O)O; NMeD = CN[C@@H](CC(=O)O)C(=O)O; NMeL = CN[C@@H](CC(C)C)C(=O)O; NMeA = CN[C@@H](C)C(=O)O; Nle = CCCC[C@H](N)C(=O)O; Piperidide = C1CCN(*)CC1; Ac5c = NC1(C(=O)O)CCCC1; Aze = O=C(O)[C@@H]1CCN1; Sar = CNCC(=O)O
Entry rule: numbers only, all in nM.

Q) Which IC50 value is on record for CCO[C@@H]1C[C@H]2C(=O)NC3(CCCC3)C(=O)N(C)[C@@H]([C@@H](C)CC)C(=O)N(C)[C@H](C)CC(=O)N(C)[C@@H](CC(C)C)C(=O)N[C@@H]([C@@H](C)CC)C(=O)N(C)[C@@H](C)C(=O)N3CC[C@H]3C(=O)N(C)[C@@H](Cc3ccc(C(F)(F)F)cc3)C(=O)N(C)CC(=O)N[C@@H](CCc3cc(F)c(C(F)(F)F)c(F)c3)C(=O)N2C1 [Compound 362] (cyclo([Ac5c][NMeI][NMedβ3hAla][NMeL]I[NMeA][Aze][NMePhe(4-CF3)][Sar][hPhe(3,5-F2-4-CF3)][Hyp](Et))) ?
A) 0.66

Q) Field request: IC50 | item: CCCC[C@@H]1NC(=O)[C@H](Cc2cccc(I)c2)NC(=O)CN(C)C(=O)[C@H](Cc2ccc(OC)cc2)N(C)C(=O)[C@@H]2CCN2C(=O)[C@H](C)N(C)C(=O)[C@H]([C@@H](C)CC)NC(=O)[C@H](CC(C)C)N(C)C(=O)C[C@@H](C(=O)N2CCCCC2)N(C)C(=O)[C@H](CC(C)C)NC(=O)[C@H](CCC(=O)N(C)C)N(C)C1=O [Compound 2110] ([NMeL]I[NMeA][Aze][NMeY](Me)[Sar][Phe(3-I)][Nle][NMeE](NMe2)L[NMeD]-Piperidide; lactam N-11)
A) 9.8

Cited source: patent US20240148821A1
